This section presents binders with their documented Binding Hep2-B-1 (% control) 1:200 PE values.
tested-system: protein F of hRSV strain B-1 (on RSV B-1-infected Hep2 cells and on virus) (human respiratory syncytial virus, …, UniProt P13843 26-574)
protocol-description: cell ELISA on RSV B-1-infected Hep2 cells, periplasmic extract 1:200
outcome-measure: Binding Hep2-B-1 (% control) 1:200 PE

{"binder": "Nanobody 13B4 (VHH, also called PMP13B4; PRSV13B4) VHH: EVQLVESGGGLVQAGGSLRLSCAASGFTFDDYAIGWFRQAPGKEREAVSCISSSDGSTYYADSVKGRFTISSDNAKNMVYLQMNSLKPEDTAVYYCAADLLRTAVGCLDYRGTYYPRTTMDYRGKGTLVTVSS", "outcome-measure": "Binding Hep2-B-1 (% control) 1:200 PE", "value-reported": "56 % control"}
{"binder": "Nanobody 1A6 (VHH, also called PMP1A6; PRSV1A6) VHH: EVQLVESGGGLVQAGGSLRLSCAASGRTFSSYAMGWFRQAPGKEREFVAAIWWSGGSTYYADSVKGRFTMSRDNAKNTVYLEMNNLKPEDTAVYYCAADTDSSNSGSYLYTWAYDYWGQGTQVTVSS", "outcome-measure": "Binding Hep2-B-1 (% control) 1:200 PE", "value-reported": "39 % control"}
{"binder": "Nanobody 20C1 (VHH, also called PMP20C1; PRSV20C1) VHH: EVQLVESGGGLVQAGGSLRLSCAASGRTFSSFAMGWFRQAPGKEREFVAAISWSGGSTYYADSVKGRFTISGDNAKNTMYLQMNSLKPEDTAVYYCAADSEILNSGAYYYPWAYVYWGQGTQVTVSS", "outcome-measure": "Binding Hep2-B-1 (% control) 1:200 PE", "value-reported": "35 % control"}
{"binder": "Nanobody 7B2 (VHH, also called PMP7B2; PRSV7B2) VHH: EVQLVESGGGLVQAGDSLRLSCAASGRTFSSYAMGWFRQAPGKEREFVAAISWSDGSTYYADSVKGRFTISRDNAKNTVYLQMNSLKPEDTAVYYCAADLTSTNPGSYIYIWAYDYWGQGTQVTVSS", "outcome-measure": "Binding Hep2-B-1 (% control) 1:200 PE", "value-reported": "41 % control"}
{"binder": "Nanobody 1G8 (VHH, also called PMP1G8; PRSV1G8) VHH: EVQLVESGGGSVQAGGSLRLSCAASGGSFNRFGMGWFRRAPGKERDFVAAINLSGDTTYYVDSVQGRFTISRDNANNIMYLQMNLLKPEDTADYYCAADPDPITAWKQSGAGMDYWGKGTQVTVSS", "outcome-measure": "Binding Hep2-B-1 (% control) 1:200 PE", "value-reported": "43 % control"}

Where do these numbers come from? They come from patent US20120301469A1.
